# Tested on: osteoclast pregenitor cells
# Procedure Text: Inhibition rates of furan derivatives versus osteoclast formation (TRAP staining)
# Type: cell-based, mice
# Assay Context: 0.1 μM; TRAP-positive multinucleated cells, untreated control set as 100%
Assign Inhibition rate against osteoclast formation, % to each entry below.
Entry rule: numbers only, all in %.

Query: Look up and report measured Inhibition rate against osteoclast formation, % for this entry: CCN(CC)C(=O)c1ccc(COc2ccc(Cl)c(C)c2)o1
Result: 0

Query: Specify Inhibition rate against osteoclast formation, % for COc1ccccc1OCc1ccc(C(=O)Oc2ccc(Cl)cc2)o1 and stop.
Result: 0

Query: Dear colleague, please send me the reported Inhibition rate against osteoclast formation, % for Cc1cc(OCc2ccc(C(=O)O)o2)ccc1Cl when you can.
Result: 0

Query: Complete the entry with Inhibition rate against osteoclast formation, % for Cc1cccc(C)c1NC(=O)c1ccc(COc2ccc(Cl)cc2)o1
Result: 0

Query: Provide Inhibition rate against osteoclast formation, % value for the following molecule: COC(=O)c1ccc(CN(C)C)o1
Result: 0

Query: Recall and state the measured Inhibition rate against osteoclast formation, % for O=C(O)c1ccc(COc2ccc(Br)cc2)o1 .
Result: 0

Query: State its Inhibition rate against osteoclast formation, % for this molecule: O=Cc1ccc(COC(=O)Nc2ccc(Cl)c(Cl)c2)o1
Result: 0

Query: For CC(C)OC(=O)c1ccc(COc2cc(Cl)ccc2Cl)o1 , write its Inhibition rate against osteoclast formation, %.
Result: 0

Query: Identify Inhibition rate against osteoclast formation, % associated with the molecule O=C(Nc1ccc(F)cc1)c1ccc(COc2cccc(Cl)c2)o1
Result: 0

Query: Answer with reported Inhibition rate against osteoclast formation, % of COC(=O)c1ccc(COc2ccc(I)cc2)o1
Result: 0

Query: Look up Inhibition rate against osteoclast formation, % of CC(C)(C)c1ccc(OCc2ccc(C(=O)NC3CCCCC3)o2)cc1 and report it.
Result: 0

Query: Consider the molecule CCCc1ccc(OCc2ccc(C(=O)Nc3cc(Cl)ccc3Cl)o2)cc1 and give its recorded Inhibition rate against osteoclast formation, %.
Result: 0

Query: Using the record for COC(=O)c1ccc(CNc2ccccc2)o1 , state its measured Inhibition rate against osteoclast formation, %.
Result: 0

Query: For the molecule O=C(O)c1ccc(COc2ccccc2Br)o1 , report Inhibition rate against osteoclast formation, %.
Result: 0

Query: Return Inhibition rate against osteoclast formation, % for the following molecule: O=C(Nc1ccc(F)cc1F)c1ccc(COc2c(F)c(F)cc(F)c2F)o1
Result: 0

Query: Fill in reported Inhibition rate against osteoclast formation, % for this entry: COc1ccc(F)c(CC(=O)OCc2ccc(C=O)o2)c1
Result: 0

Query: Return value of Inhibition rate against osteoclast formation, % for input COc1ccccc1OCc1ccc(C(=O)Nc2ccc(C)c(C)c2)o1 , no commentary.
Result: 0

Query: Output measured Inhibition rate against osteoclast formation, % for this item: O=C(Nc1cccc(Br)c1)c1ccc(COc2ccc(F)cc2)o1
Result: 0

Query: Please indicate Inhibition rate against osteoclast formation, % recorded for COC(=O)c1ccc(COc2ccc(Cl)cc2)o1
Result: 0

Query: Give Inhibition rate against osteoclast formation, % for the following molecule: O=C(Nc1ccccc1)c1ccc(COc2ccc3ccccc3c2)o1
Result: 0

Query: Tell me its Inhibition rate against osteoclast formation, % given O=C(Nc1ccccc1F)c1ccc(COc2ccc(Cl)cc2)o1 as the entry.
Result: 0

Query: Check the records and state Inhibition rate against osteoclast formation, % for CCCc1ccc(OCc2ccc(C(=O)O)o2)cc1
Result: 0

Query: Please supply the value of reported Inhibition rate against osteoclast formation, % for the item C=CCc1ccc(OCc2ccc(C(=O)OC)o2)c(OC)c1
Result: 0

Query: Determine from records and report Inhibition rate against osteoclast formation, % for COc1ccccc1NC(=O)c1ccc(COc2ccccc2OC)o1
Result: 0

Query: Answer with the recorded Inhibition rate against osteoclast formation, % for the molecule listed here: O=C(Nc1cc(C(F)(F)F)ccc1Cl)c1ccc(COc2ccc(Cl)cc2)o1
Result: 0

Query: Consider the molecule O=C(O)c1ccc(COc2cccc3ccccc23)o1 and give its recorded Inhibition rate against osteoclast formation, %.
Result: 0

Query: In one line, give reported Inhibition rate against osteoclast formation, % of the entry COC(=O)c1ccccc1NC(=O)c1ccc(COc2ccc(C)c(C)c2)o1 .
Result: 0

Query: Answer with reported Inhibition rate against osteoclast formation, % of O=C(c1ccc(COc2cc(Cl)ccc2Cl)o1)N1CCCCCC1
Result: 0

Query: Return reported Inhibition rate against osteoclast formation, %. Input molecule: Cc1ccc(OCc2ccc(C(=O)Nc3ccc(F)c(F)c3)o2)cc1C
Result: 0

Query: Give the measured Inhibition rate against osteoclast formation, % for CCOc1ccccc1NC(=O)c1ccc(COc2ccc(Cl)cc2[N+](=O)[O-])o1
Result: 0

Query: Name the recorded Inhibition rate against osteoclast formation, % of the molecule listed here: O=C(Nc1ccccc1[N+](=O)[O-])c1ccc(COc2ccccc2Cl)o1
Result: 0

Query: # return recorded Inhibition rate against osteoclast formation, % for input O=C(Nc1ccc(F)c(F)c1)c1ccc(COc2ccc(I)cc2)o1
Result: 0

Query: Determine from records and report Inhibition rate against osteoclast formation, % for O=Cc1ccc(COC(=O)Nc2ccccc2Cl)o1
Result: 0

Query: Give the reported value of Inhibition rate against osteoclast formation, % for this record: CCC(C)NC(=O)c1ccc(COc2ccc(I)cc2)o1 (stereo not shown)
Result: 0

Query: Specify measured Inhibition rate against osteoclast formation, % for Cc1ccc(F)c(NC(=O)c2ccc(COc3ccc(C)cc3[N+](=O)[O-])o2)c1 .
Result: 0

Query: Provide Inhibition rate against osteoclast formation, % value for the following molecule: O=Cc1ccc(COC(=O)Cc2ccccc2)o1
Result: 0

Query: For the molecule COC(=O)c1ccc(COc2ccc(Cl)c(C)c2)o1 , give its measured Inhibition rate against osteoclast formation, % value.
Result: 0

Query: Give reported Inhibition rate against osteoclast formation, % value for COc1ccccc1OCc1ccc(C(=O)Nc2ccccc2Cl)o1
Result: 0

Query: Entry COC(=O)c1ccc(COc2ccc(Cl)cc2Cl)o1 needs its Inhibition rate against osteoclast formation, % filled in; supply it.
Result: 0

Query: Tell me its Inhibition rate against osteoclast formation, % given CC(C)(C)c1ccc(OCc2ccc(C(=O)Nc3ccccc3)o2)cc1 as the entry.
Result: 0

The values you see were collected from patent US20060004088A1.
